target: (human) A2A adenosine receptors (Homo sapiens)
Sequence (P29274 whole entry): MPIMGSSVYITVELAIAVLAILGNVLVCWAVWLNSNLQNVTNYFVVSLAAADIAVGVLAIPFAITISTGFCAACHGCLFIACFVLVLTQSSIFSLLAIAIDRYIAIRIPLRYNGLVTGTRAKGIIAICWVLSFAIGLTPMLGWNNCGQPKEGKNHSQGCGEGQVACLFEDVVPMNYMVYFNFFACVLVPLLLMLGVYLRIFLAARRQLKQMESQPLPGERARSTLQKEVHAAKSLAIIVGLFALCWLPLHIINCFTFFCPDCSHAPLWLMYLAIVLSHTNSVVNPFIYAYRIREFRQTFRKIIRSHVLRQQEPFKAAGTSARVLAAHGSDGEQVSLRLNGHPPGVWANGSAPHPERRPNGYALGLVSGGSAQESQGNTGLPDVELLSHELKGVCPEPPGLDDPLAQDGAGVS
Below, each of the compounds is paired with its reported IC50 value.

- Compound: "Nc1nc(N/N=C/c2cccc(OCc3ccccc3)c2)nc2c1ncn2[C@@H]1O[C@H](CO)[C@@H](O)[C@H]1O"
  Reported relation: "="
  IC50 [nM]: 369
- Compound: "Nc1nc(N/N=C/c2ccc(C(F)(F)F)cc2)nc2c1ncn2[C@@H]1O[C@H](CO)[C@@H](O)[C@H]1O"
  Reported relation: "="
  IC50 [nM]: 131
- Compound: "N#Cc1ccc(/C=N/Nc2nc(N)c3ncn([C@@H]4O[C@H](CO)C(O)C4O)c3n2)cc1 (stereo partly drawn)"
  Reported relation: "="
  IC50 [nM]: 18.1
- Compound: "CCCOc1ccc(/C=N/Nc2nc(N)c3ncn([C@@H]4O[C@H](CO)C(O)C4O)c3n2)cc1 (stereo partly drawn)"
  Reported relation: "="
  IC50 [nM]: 479
- Compound: "COc1cc(/C=N/Nc2nc(N)c3ncn([C@@H]4O[C@H](CO)[C@@H](O)[C@H]4O)c3n2)ccc1OCc1ccccc1"
  Reported relation: "="
  IC50 [nM]: 216
- Compound: "Nc1nc(N/N=C/c2ccc(N(c3ccccc3)c3ccccc3)cc2)nc2c1ncn2[C@@H]1O[C@H](CO)[C@@H](O)[C@H]1O"
  Reported relation: "="
  IC50 [nM]: 142
- Compound: "Nc1nc(N/N=C/c2ccc(N3CCCC3)cc2)nc2c1ncn2[C@@H]1O[C@H](CO)[C@@H](O)[C@H]1O"
  Reported relation: ">"
  IC50 [nM]: 10000
- Compound: "Nc1nc(N/N=C/c2ccc(-n3ccnc3)cc2)nc2c1ncn2[C@@H]1O[C@H](CO)[C@@H](O)[C@H]1O"
  Reported relation: "="
  IC50 [nM]: 462
- Compound: "Nc1nc(N/N=C/c2ccc(Cl)c(C(F)(F)F)c2)nc2c1ncn2[C@@H]1O[C@H](CO)[C@@H](O)[C@H]1O"
  Reported relation: "="
  IC50 [nM]: 1710

---

Experimental readout: melting point (°C)

- Compound: "Nc1nc(N/N=C/c2ccc(OCc3ccc(F)cc3)cc2)nc2c1ncn2[C@@H]1O[C@H](CO)[C@@H](O)[C@H]1O [Compound 5]"
  Obs value: 144
- Compound: "CCCOc1ccc(/C=N/Nc2nc(N)c3ncn([C@@H]4O[C@H](CO)C(O)C4O)c3n2)cc1 (some centres unmarked) [Compound 13]"
  Obs value: 218
- Compound: "N#Cc1ccccc1/C=N/Nc1nc(N)c2ncn([C@@H]3O[C@H](CO)C(O)C3O)c2n1 (some centres unmarked) [Compound 14]"
  Obs value: 260
- Compound: "Nc1nc(N/N=C/c2ccc(N3CCOCC3)cc2)nc2c1ncn2[C@@H]1O[C@H](CO)[C@@H](O)[C@H]1O [Compound 17]"
  Obs value: 186
- Compound: "Nc1nc(N/N=C/c2ccc(N(c3ccccc3)c3ccccc3)cc2)nc2c1ncn2[C@@H]1O[C@H](CO)[C@@H](O)[C@H]1O [Compound 4]"
  Obs value: 184
- Compound: "N#Cc1ccc(/C=N/Nc2nc(N)c3ncn([C@@H]4O[C@H](CO)C(O)C4O)c3n2)cc1 (some centres unmarked) [Compound 20]"
  Obs value: 276
- Compound: "Nc1nc(N/N=C/c2ccc(-n3ccnc3)cc2)nc2c1ncn2[C@@H]1O[C@H](CO)[C@@H](O)[C@H]1O [Compound 12]"
  Obs value: 276
- Compound: "Nc1nc(N/N=C/c2ccc(-c3ccccn3)cc2)nc2c1ncn2[C@@H]1O[C@H](CO)[C@@H](O)[C@H]1O [Compound 8]"
  Obs value: 164

Measured values drawn from patent US20220378816A1 for this set.
